Source: ChEMBL document CHEMBL2163339

Target: Fatty-acid amide hydrolase 1 (Mus musculus)
Sequence (O08914 whole entry): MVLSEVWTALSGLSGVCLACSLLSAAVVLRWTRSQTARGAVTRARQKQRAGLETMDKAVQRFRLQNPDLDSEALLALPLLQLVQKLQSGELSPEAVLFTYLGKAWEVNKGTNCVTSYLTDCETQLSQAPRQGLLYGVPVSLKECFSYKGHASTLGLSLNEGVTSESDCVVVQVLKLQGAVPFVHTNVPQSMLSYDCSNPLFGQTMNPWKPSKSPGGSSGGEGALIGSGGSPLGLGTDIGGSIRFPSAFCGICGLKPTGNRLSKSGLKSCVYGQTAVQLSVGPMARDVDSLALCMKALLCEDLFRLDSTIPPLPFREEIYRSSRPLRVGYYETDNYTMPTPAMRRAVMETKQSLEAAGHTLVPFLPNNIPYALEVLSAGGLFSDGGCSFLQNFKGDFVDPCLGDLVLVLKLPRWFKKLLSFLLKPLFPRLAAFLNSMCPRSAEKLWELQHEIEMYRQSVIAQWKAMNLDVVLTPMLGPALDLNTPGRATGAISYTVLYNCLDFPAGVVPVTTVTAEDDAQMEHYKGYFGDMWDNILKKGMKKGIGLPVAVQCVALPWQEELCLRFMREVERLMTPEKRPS
Test: Inhibition of mouse FAAH isolated from brain homogenate using [3H-ethanolamine]AEA as substrate incubated for 20 mins prior to substrate addition measured after 15 mins by beta counting analysis
I'd appreciate it if you marked entries 1.0 when Ki is lower than 10 nM and 0.0 when it is not.

Completed entries (count: 2):
cpdSmiles | cat
NC(=O)c1ccn(-c2cccc(OC(=O)NC3CCCCC3)c2)c1 | 0.0
C#CCCCCCCCCCNC(=O)Oc1cccc(-n2ccc(C(N)=O)c2)c1 | 1.0

QUERY: A record lists `NC(=O)c1ccn(-c2cccc(OC(=O)NCCOCCOc3ccccc3)c2)c1` . Is its Ki below 10 nM?
RESULT: 0.0

QUERY: Below 10 nM on Ki? Entry `Cc1cc(C(N)=O)c(-c2cccc(OC(=O)NCCCCCCc3ccccc3)c2)o1`
RESULT: 1.0

QUERY: Could you please tell me whether Ki recorded for `CCCCNC(=O)Oc1cccc(-c2oc(C)cc2C(N)=O)c1` is less than 10 nM?
RESULT: 0.0

QUERY: # TODO verify Ki < 10 nM strictly for this compound: `Cc1cc(C(N)=O)c(-c2cccc(OC(=O)NCCCCCCc3ccccc3)c2)s1`
RESULT: 1.0

QUERY: # TODO verify Ki < 10 nM strictly for this compound: `NC(=O)c1ccn(-c2cccc(OC(=O)NCCOCCOc3ccc(F)cc3)c2)c1`
RESULT: 1.0

QUERY: Hi there! Is Ki for `CCCCNC(=O)Oc1cccc(-n2ccc(C(N)=O)c2)c1` below 10 nM, do you know?
RESULT: 0.0

QUERY: Ki strictly < 10 nM for this compound? `NC(=O)c1ccn(-c2cccc(OC(=O)NCCOCCOc3ccccc3F)c2)c1`
RESULT: 0.0

QUERY: Does `NC(=O)c1ccn(-c2cccc(OC(=O)NCCOCCOc3c(F)cc(F)cc3F)c2)c1` have Ki strictly under 10 nM?
RESULT: 0.0

QUERY: State whether 10 nM exceeds Ki recorded for `NC(=O)c1ccn(-c2cccc(OC(=O)NCCCCCCc3ccccc3)c2)c1` .
RESULT: 1.0

QUERY: Say whether its Ki is strictly beneath 10 nM. Entry: `NC(=O)c1ccn(-c2cccc(OC(=O)NCCOCCOc3ccc(F)cc3F)c2)c1`
RESULT: 1.0

QUERY: Determine whether this compound shows Ki lower than 10 nM (ties excluded): `Cc1oc(-c2cccc(OC(=O)NCCCCCCc3ccccc3)c2)cc1C(N)=O`
RESULT: 1.0

----------
target: Fatty-acid amide hydrolase 1 (Mus musculus); assay: Inhibition of mouse FAAH isolated from brain homogenate using [3H-ethanolamine]AEA as substrate incubated for 20 mins prior to substrate addition measured after 15 mins by beta counting analysis
measuredParameter: IC50

// IC50 (Fatty-acid amide hydrolase 1 (Mus musculus)) for `Cc1oc(-c2cccc(OC(=O)NCCCCCCc3ccccc3)c2)cc1C(N)=O` = 0.018 µM

Item: `Cc1cc(C(N)=O)c(-c2cccc(OC(=O)NC3CCCCC3)c2)s1` | System: Fatty-acid amide hydrolase 1 (Mus musculus) | IC50: > 0.2 µM

----------
target: Voltage-gated inwardly rectifying potassium channel KCNH2 (Homo sapiens); test: Inhibition of human ERG expressed in CHOK1 cells for 5 mins by automated patch clamp assay
Sequence (Q12809 whole entry): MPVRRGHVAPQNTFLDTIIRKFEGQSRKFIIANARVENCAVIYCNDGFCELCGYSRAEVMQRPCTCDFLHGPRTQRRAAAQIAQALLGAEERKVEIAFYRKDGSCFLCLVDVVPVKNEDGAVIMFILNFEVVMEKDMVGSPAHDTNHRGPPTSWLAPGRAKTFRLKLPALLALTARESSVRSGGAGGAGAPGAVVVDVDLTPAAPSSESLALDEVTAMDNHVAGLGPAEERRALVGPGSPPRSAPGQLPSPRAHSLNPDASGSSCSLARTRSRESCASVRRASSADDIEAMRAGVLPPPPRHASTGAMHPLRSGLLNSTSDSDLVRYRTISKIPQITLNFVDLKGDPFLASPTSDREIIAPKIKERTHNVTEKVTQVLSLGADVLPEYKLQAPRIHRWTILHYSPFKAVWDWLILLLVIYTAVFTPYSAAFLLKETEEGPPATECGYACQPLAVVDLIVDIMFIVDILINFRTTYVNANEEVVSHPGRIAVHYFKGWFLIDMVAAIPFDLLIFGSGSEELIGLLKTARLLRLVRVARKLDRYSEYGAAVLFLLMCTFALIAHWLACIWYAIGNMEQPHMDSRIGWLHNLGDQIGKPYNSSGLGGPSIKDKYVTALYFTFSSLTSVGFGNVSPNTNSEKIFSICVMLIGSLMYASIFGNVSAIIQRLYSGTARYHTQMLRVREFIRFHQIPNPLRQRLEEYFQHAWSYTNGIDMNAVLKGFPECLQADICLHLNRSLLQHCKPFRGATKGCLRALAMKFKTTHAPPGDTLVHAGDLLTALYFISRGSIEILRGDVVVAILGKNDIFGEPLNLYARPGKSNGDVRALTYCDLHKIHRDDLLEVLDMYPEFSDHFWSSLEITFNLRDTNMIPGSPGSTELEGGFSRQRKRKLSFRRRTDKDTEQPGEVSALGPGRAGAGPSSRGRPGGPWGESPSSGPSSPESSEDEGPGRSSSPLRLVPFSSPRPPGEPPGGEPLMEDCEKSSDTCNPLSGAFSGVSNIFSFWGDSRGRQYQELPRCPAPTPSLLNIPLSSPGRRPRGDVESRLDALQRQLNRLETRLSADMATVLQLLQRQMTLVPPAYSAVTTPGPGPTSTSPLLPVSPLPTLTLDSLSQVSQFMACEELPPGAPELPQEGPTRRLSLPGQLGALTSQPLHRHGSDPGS
pIC50: −log10 of the molar value.
measuredParameter: pIC50

cpdSmiles | assayTarget | pIC50
Cc1cc(C(N)=O)c(-c2cccc(OC(=O)NCCCCCCc3ccccc3)c2)o1 | Voltage-gated inwardly rectifying potassium channel KCNH2 (Homo sapiens) | < 5.00
Cc1cc(C(N)=O)c(-c2cccc(OC(=O)NCCCCCCc3ccccc3)c2)s1 | Voltage-gated inwardly rectifying potassium channel KCNH2 (Homo sapiens) | < 5.00

# next compound below
For `NC(=O)c1ccn(-c2cccc(OC(=O)NCCCCCCc3ccccc3)c2)c1` the compound record lists pIC50 as < 5.00

----------
target: Fatty-acid amide hydrolase 1 (Mus musculus); test: Reversible inhibition of mouse FAAH isolated from brain homogenate using [3H-ethanolamine]AEA as substrate incubated for 20 mins prior to substrate addition measured after 18 hrs by […] method
Activity calls are given as the source filed them. The rule behind the calls is not given here.
measuredParameter: inhibition

Observe how each entry below is paired with its result.
cpdSmiles | inhibition
NC(=O)c1ccn(-c2cccc(OC(=O)NCCCCCCc3ccccc3)c2)c1 | Active
NC(=O)c1ccn(-c2cccc(OC(=O)NCCOCCOc3ccc(F)cc3)c2)c1 | Active
NC(=O)c1ccn(-c2cccc(OC(=O)NCCOCCOc3ccc(F)cc3F)c2)c1 | Active
O=C(CCCCCCc1ccccc1)c1ncc(-c2ccccn2)o1 | Active

Now consider the entry below.
Note to self: inhibition recorded for `Cc1cc(C(N)=O)c(-c2cccc(OC(=O)NCCCCCCc3ccccc3)c2)s1` was Active

----------
molecular target: Fatty-acid amide hydrolase 1 (Mus musculus); assay: Inhibition of mouse FAAH isolated from brain homogenate using [3H-ethanolamine]AEA as substrate incubated for 20 mins prior to substrate addition measured after 15 mins by beta counting analysis
In this section, each of the compounds is paired with its reported pIC50.
Note on pIC50: it is the negative log10 of concentration, concentration in mol/L.

Worked cases, answers included:
cpdSmiles | pIC50
NC(=O)c1ccn(-c2cccc(OC(=O)NCCOCCOc3c(F)cc(F)cc3F)c2)c1 | 7.37
C#CCCCCCCCCCNC(=O)Oc1cccc(-n2ccc(C(N)=O)c2)c1 | 9.17

From here, focus on the item given below.
In plain terms, `CCCCNC(=O)Oc1cccc(-c2oc(C)cc2C(N)=O)c1` has a documented pIC50 of 6.28

----------
Quick reference: pIC50 of the listed items.
target: Fatty-acid amide hydrolase 1 (Homo sapiens); assay: Inhibition of human recombinant FAAH
Sequence (O00519 whole entry): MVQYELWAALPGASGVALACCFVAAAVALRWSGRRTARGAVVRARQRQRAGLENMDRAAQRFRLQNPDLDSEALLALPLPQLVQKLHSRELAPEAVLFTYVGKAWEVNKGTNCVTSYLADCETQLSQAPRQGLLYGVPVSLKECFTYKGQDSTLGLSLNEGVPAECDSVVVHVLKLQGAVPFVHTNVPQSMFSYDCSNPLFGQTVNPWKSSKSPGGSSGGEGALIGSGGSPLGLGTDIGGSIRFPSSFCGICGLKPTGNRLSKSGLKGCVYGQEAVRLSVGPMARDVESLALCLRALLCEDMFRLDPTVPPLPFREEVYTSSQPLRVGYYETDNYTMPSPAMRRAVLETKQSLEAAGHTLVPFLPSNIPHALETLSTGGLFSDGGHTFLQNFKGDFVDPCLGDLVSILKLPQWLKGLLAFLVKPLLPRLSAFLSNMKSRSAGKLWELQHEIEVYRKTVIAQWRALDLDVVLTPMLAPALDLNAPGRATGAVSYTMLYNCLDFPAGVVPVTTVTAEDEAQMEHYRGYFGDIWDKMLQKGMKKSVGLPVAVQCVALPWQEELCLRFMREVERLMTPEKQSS
The quantity pIC50 is defined as the negative base-10 logarithm of the molar concentration.

cpdSmiles | assayTarget | pIC50
NC(=O)c1cccc(-c2cccc(OC(=O)NCCCCCCc3ccccc3)c2)c1 | Fatty-acid amide hydrolase 1 (Homo sapiens) | 7.44

The compound identified as `Cc1cc(C(N)=O)c(-c2cccc(OC(=O)NCCCCCCc3ccccc3)c2)o1` registered its pIC50 at 6.99

----------
Target: Fatty-acid amide hydrolase 1 (Mus musculus, UniProt O08914)
Sequence (O08914 whole entry): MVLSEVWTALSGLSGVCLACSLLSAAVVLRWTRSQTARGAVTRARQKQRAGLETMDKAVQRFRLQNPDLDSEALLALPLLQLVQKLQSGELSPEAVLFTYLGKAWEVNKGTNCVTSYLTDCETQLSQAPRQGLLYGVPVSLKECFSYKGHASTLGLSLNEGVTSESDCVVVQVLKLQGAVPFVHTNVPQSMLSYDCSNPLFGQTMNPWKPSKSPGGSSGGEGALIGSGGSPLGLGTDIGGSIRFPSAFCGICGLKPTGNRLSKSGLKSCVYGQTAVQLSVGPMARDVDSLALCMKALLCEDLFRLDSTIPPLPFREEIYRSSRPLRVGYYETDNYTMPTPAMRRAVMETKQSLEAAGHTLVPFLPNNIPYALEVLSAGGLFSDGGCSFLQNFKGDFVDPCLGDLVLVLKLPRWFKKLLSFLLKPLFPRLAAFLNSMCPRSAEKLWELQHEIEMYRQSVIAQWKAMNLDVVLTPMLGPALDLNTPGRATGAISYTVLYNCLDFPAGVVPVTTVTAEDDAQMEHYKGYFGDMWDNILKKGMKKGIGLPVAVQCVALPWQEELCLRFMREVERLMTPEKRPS
Assay: Inhibition of mouse FAAH isolated from brain homogenate using [3H-ethanolamine]AEA as substrate incubated for 20 mins prior to substrate addition measured after 15 mins by beta counting analysis
Below, each of the molecules is paired with its reported IC50 value.
Respond with the bare value in nM.

# count of solved cases: 6
cpdSmiles | IC50 (nM)
NC(=O)c1ccn(-c2cccc(OC(=O)NCCCCCCc3ccccc3)c2)c1 | 0.6
NC(=O)c1ccn(-c2cccc(OC(=O)NCCOCCOc3ccccc3)c2)c1 | 87
NC(=O)c1ccn(-c2cccc(OC(=O)NCCOCCOc3ccccc3F)c2)c1 | 69
NC(=O)c1cccc(-c2cccc(OC(=O)NCCCCCCc3ccccc3)c2)c1 | 14
NC(=O)c1ccn(-c2cccc(OC(=O)NCCOCCOc3ccc(F)cc3F)c2)c1 | 28
Cc1cc(C(N)=O)c(-c2cccc(OC(=O)NCCCCCCc3ccccc3)c2)s1 | 1.9

Let us examine a further case.
# IC50 of `Cc1cc(C(N)=O)c(-c2cccc(OC(=O)NCCCCCCc3ccccc3)c2)o1` = 1.7
